Tested on: OCI-Ly10
Experiment: Growth inhibition of human OCI-LY10 cells after 48 hrs by MTS assay
Type: functional
Conditions: OCI-Ly10, 48 h
Assign GI50 to each entry below.
One number for each entry, in nM.

{"ENTRY SMILES": "COc1cc2c(NC3CCN(C(C)C)CC3)cc(-c3ccc(C)o3)nc2cc1OCCCN1CCCC1", "TARGET": "OCI-Ly10", "GI50 [nM]": 792}
{"ENTRY SMILES": "COc1cc2c(NC3CCN(C)CC3)cc(-c3ccoc3)nc2cc1OCCCN1CCCC1", "TARGET": "OCI-Ly10", "GI50 [nM]": 386}
{"ENTRY SMILES": "COc1cc2c(NC3CCN(C)CC3)cc(-c3ccc(C)[nH]3)nc2cc1OCCCN1CCCC1", "TARGET": "OCI-Ly10", "GI50 [nM]": 915}

For every listed record, write down its GI50.
1. CCc1ccc(-c2cc(NC3CCN(C4CC4)CC3)c3cc(OC)c(OCCCN4CCCC4)cc3n2)o1
2. COc1cc2c(NC3CCN(C4CC4)CC3)cc(-c3ccc(C)o3)nc2cc1OCCCN1CCCC1
3. COc1cc2c(NC3CCN(C)CC3)cc(-c3ccccc3)nc2cc1OCCCN1CCCC1

[236, 94, 420]
